- Measured Target: TYK2 Pseudokinase (JH2) (Homo sapiens)
- Sequence (P29597 whole entry): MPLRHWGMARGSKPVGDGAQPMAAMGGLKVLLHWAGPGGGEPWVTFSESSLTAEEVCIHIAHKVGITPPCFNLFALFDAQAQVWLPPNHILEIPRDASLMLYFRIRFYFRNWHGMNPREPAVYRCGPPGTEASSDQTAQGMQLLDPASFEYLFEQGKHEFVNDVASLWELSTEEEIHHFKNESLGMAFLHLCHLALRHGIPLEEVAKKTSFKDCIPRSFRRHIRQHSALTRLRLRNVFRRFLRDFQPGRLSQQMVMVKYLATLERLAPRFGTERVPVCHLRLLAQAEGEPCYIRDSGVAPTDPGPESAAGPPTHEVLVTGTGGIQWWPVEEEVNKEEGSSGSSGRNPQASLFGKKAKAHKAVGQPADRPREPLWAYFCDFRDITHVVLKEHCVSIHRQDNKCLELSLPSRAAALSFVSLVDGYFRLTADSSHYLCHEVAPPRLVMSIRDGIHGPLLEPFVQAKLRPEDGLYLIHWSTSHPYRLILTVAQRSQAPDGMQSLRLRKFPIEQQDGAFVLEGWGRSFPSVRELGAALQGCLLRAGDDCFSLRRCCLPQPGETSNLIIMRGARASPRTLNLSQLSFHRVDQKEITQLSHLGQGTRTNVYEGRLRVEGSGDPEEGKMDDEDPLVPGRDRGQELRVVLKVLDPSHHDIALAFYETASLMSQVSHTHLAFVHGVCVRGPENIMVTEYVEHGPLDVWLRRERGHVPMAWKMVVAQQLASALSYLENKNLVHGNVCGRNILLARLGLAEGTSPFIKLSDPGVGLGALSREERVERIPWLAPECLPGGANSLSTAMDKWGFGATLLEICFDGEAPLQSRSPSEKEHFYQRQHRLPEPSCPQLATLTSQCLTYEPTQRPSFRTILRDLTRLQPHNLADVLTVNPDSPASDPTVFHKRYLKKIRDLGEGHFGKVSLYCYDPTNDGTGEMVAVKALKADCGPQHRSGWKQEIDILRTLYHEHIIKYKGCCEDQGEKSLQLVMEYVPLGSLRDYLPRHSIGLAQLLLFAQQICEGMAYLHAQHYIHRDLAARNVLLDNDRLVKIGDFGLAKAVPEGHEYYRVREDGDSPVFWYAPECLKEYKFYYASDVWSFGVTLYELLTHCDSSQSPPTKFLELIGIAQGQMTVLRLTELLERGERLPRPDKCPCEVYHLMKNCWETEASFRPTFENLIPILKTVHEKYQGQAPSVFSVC
- Protocol Summary: HEK-Blue IL-23 reporter assay (SEAP) for profiling TYK2 pseudokinase (JH2) inhibition
- Type: cell-based
- Design: HEK-Blue™ IL-23 and IFNα/β cells with a stably-integrated cytokine receptor and STAT3 or STAT1; endogenous in cells; host or cells: HEK-Blue IL-23 and HEK-Blue IFNα/β cells
- Measurement Setup: HEK-Blue IL-23 cells, 10 ng/mL human recombinant IL-23, SEAP reporter; read-out: IL23 (TYK2 inhibitory activity, IC50)
- Experimental: Example B-1: HEK-Blue™ IL-23 and IFNα/β Reporter Assays for Profiling TYK2 Pseudokinase (JH2) Inhibition HEK-Blue™ IL-23 and IFNα/β cells with a stably-integrated cytokine receptor and STAT3 or STAT1 express STAT-inducible secreted embryonic alkaline phosphatase (SEAP) reporter gene upon cytokine stimulation. […] SEAP induction is measured using the QUANTI Blue™ Solution (InvivoGen) according to the manufacturer's instructions.
pIC50: −log10 of the molar value.
Listing: pIC50 of selected compounds

Example cases with answers are listed next.
CNC(=O)c1nnc(NC(=O)C2CC2)cc1Nc1cccc2c1OCn1nnnc1-2 [Compound 5] :: 6.00 to 6.52
[2H]C([2H])([2H])NC(=O)c1nnc(NC(=O)C2CC2)cc1Nc1cccc2c1N(C)Cc1nn(C)c(=O)n1-2 [Compound 17] :: > 7.52
CNC(=O)c1cnc(Nc2ccc(F)cn2)cc1Nc1cccc2c1OCCn1nnnc1-2 [Compound 15] :: 6.52 to 7.52

Requested read-out pIC50, target or system TYK2 Pseudokinase (JH2) (Homo sapiens), entry [2H]C([2H])([2H])NC(=O)c1cnc(NC(=O)C2CC2)cc1Nc1cccc2c1N(C)Cc1nc(C)oc1-2 [Compound 23]
> 7.52

Origin of values: patent US20240189309A1
